- testProtocol: clinical
- settings: male, human, in vivo, po, 2000 mg
observable: MRT (h)
Respond numerically; units are h and should not be typed.

// query For the compound OC1C(O)C(O)C(O)C(O)C1O (stereo not shown) [AZD-103, scyllo-inositol] , give its measured MRT value.
// result 16.3

* * *

- testProtocol: Single oral and intravenous dose pharmacokinetics, dose range-finding study in beagle dogs
- Assay type: in vivo, beagle dog
- settings: beagle, dog, plasma; dogs, single intravenous dose 240 mg/kg
observable: AUC(0-inf) (µg·h/mL)
Respond numerically; units are µg·h/mL and should not be typed.

// query For the molecule OC1C(O)C(O)C(O)C(O)C1O (stereo not shown) [AZD-103, scyllo-inositol] , give its measured AUC(0-inf) value.
// result 248

* * *

- testProtocol: in vivo
- settings: rat, po, 15 mg/kg
observable: MRT (h)
Respond numerically; units are h and should not be typed.

// query For the compound OC1C(O)C(O)C(O)C(O)C1O (stereo not shown) , give its measured MRT value.
// result 3.7

* * *

- testProtocol: Brain penetrance: plasma and CSF pharmacokinetics after single oral doses in dogs
- Type: in vivo, dog
- settings: dog, PLASMA LEVELS, single oral dose 20 mg/kg
observable: Tmax (h)
Respond numerically; units are h and should not be typed.

// query For the molecule OC1C(O)C(O)C(O)C(O)C1O (stereo not shown) , give its measured Tmax value.
// result 2.8

* * *

- testProtocol: Single oral and intravenous dose pharmacokinetics, dose range-finding study in beagle dogs
- Assay type: in vivo, beagle dog
- settings: beagle, dog, plasma; dogs, single oral dose 80 mg/kg; read-out: t1/2 (converted)
observable: half-life (h)
Respond numerically; units are h and should not be typed.

// query For the molecule OC1C(O)C(O)C(O)C(O)C1O (stereo not shown) , give its measured half-life value.
// result 2

* * *

- testProtocol: Brain penetrance: plasma and CSF pharmacokinetics after single oral doses in dogs
- Type: in vivo, dog
- settings: dog, CSF, single oral dose 20 mg/kg
observable: AUC(0-inf) (ng·h/mL)
Respond numerically; units are ng·h/mL and should not be typed.

// query For the compound OC1C(O)C(O)C(O)C(O)C1O (stereo not shown) , give its measured AUC(0-inf) value.
// result 38000

* * *

- testProtocol: in vivo
- settings: dog, po, 50 mg/kg
- Procedure: Plasma PK of a scyllo-cyclohexanhexyl in dogs was assessed after 14 days oral dosing of 15, 50 and 150 mg/kg, administered twice daily. As on Day 1 of this study Cmax and AUC values increased proportionally with dose level of scyllo-cyclohexanehexyl. However, dose-normalised exposures appeared to decrease with dose. This contrasts with positive trend observed after acute exposure. […]
observable: Tmax (h)
Respond numerically; units are h and should not be typed.

// query For the compound OC1C(O)C(O)C(O)C(O)C1O (stereo not shown) [AZD-103, scyllo-inositol] , give its measured Tmax value.
// result 1.1

* * *

- testProtocol: Brain penetrance: plasma and CSF pharmacokinetics after single oral doses in dogs
- Format: in vivo, dog
- settings: dog, PLASMA LEVELS, single oral dose 240 mg/kg
observable: AUC(0-inf)
The reply must contain the numeric value and, after it, the unit.

// query For the molecule OC1C(O)C(O)C(O)C(O)C1O (stereo not shown) , give its measured AUC(0-inf) value.
// result 528 µg·h/mL

* * *

- testProtocol: in vivo
- settings: rat, po, 150 mg/kg
observable: CL/F
The reply must contain the numeric value and, after it, the unit.

// query For the molecule OC1C(O)C(O)C(O)C(O)C1O (stereo not shown) , give its measured CL/F value.
// result 9.55 mL/min/kg

* * *

- testProtocol: in vivo
- settings: dog, po, 150 mg/kg
observable: AUC(0-t) (µg·h/mL)
Respond numerically; units are µg·h/mL and should not be typed.

// query For the compound OC1C(O)C(O)C(O)C(O)C1O (stereo not shown) [AZD-103, scyllo-inositol] , give its measured AUC(0-t) value.
// result 450

* * *

- testProtocol: Single oral and intravenous dose pharmacokinetics, dose range-finding study in beagle dogs
- Type: in vivo, beagle dog
- settings: beagle, dog, plasma; dogs, single oral dose 240 mg/kg
observable: Cmax

// query For the compound OC1C(O)C(O)C(O)C(O)C1O (stereo not shown) , give its measured Cmax value.
// result 89.5 µg/mL

* * *

- testProtocol: in vivo
- settings: dog, po, 150 mg/kg
observable: CL/F (L/h/kg)
Respond numerically; units are L/h/kg and should not be typed.

// query For the molecule OC1C(O)C(O)C(O)C(O)C1O (stereo not shown) [AZD-103, scyllo-inositol] , give its measured CL/F value.
// result 0.0937

* * *

- testProtocol: in vivo
- settings: rat, po, 15 mg/kg
observable: half-life at 28 days (h)
Respond numerically; units are h and should not be typed.

// query For the compound OC1C(O)C(O)C(O)C(O)C1O (stereo not shown) , give its measured half-life at 28 days value.
// result 4.4

* * *

- testProtocol: Single oral and intravenous dose pharmacokinetics, dose range-finding study in beagle dogs
- Type: in vivo, beagle dog
- settings: beagle, dog, plasma; dogs, single oral dose 240 mg/kg; read-out: t1/2 (converted)
observable: half-life (h)
Respond numerically; units are h and should not be typed.

// query For the molecule OC1C(O)C(O)C(O)C(O)C1O (stereo not shown) [AZD-103, scyllo-inositol] , give its measured half-life value.
// result 2

* * *

- testProtocol: clinical
- settings: male, human, in vivo, po, 3500 mg
observable: MRT
The reply must contain the numeric value and, after it, the unit.

// query For the compound OC1C(O)C(O)C(O)C(O)C1O (stereo not shown) [AZD-103, scyllo-inositol] , give its measured MRT value.
// result 11 h

* * *

- testProtocol: in vivo
- settings: rat, po, 150 mg/kg
- Method: Three studies were performed to investigate the pharmacokinetics of oral administration of a scyllo-cyclohexanehexyl (Table 1): Plasma pharmacokinetics (PK) of a scyllo-cyclohexanehexyl in rats was assessed after single oral doses of 15, 50 and 150 mg/kg. After single oral doses in rats, maximum plasma concentration (Cmax) and exposure (AUC0-t) values increased proportionally with dose level of the scyllo-cyclohexanehexyl. Other parameters were unchanged with dose level. […]
observable: MRT (h)
Respond numerically; units are h and should not be typed.

// query For the compound OC1C(O)C(O)C(O)C(O)C1O (stereo not shown) [AZD-103, scyllo-inositol] , give its measured MRT value.
// result 3.9

* * *

- testProtocol: in vivo
- settings: dog, po, 150 mg/kg
observable: half-life (h)
Respond numerically; units are h and should not be typed.

// query For the molecule OC1C(O)C(O)C(O)C(O)C1O (stereo not shown) , give its measured half-life value.
// result 2.9

* * *

- testProtocol: Single oral and intravenous dose pharmacokinetics, dose range-finding study in beagle dogs
- Format: in vivo, beagle dog
- settings: beagle, dog, plasma; dogs, single oral dose 20 mg/kg; read-out: t1/2 (converted)
observable: half-life (h)
Respond numerically; units are h and should not be typed.

// query For the molecule OC1C(O)C(O)C(O)C(O)C1O (stereo not shown) , give its measured half-life value.
// result 5

* * *

- testProtocol: in vivo
- settings: dog, po, 15 mg/kg
observable: Cmax (ng/mL)
Respond numerically; units are ng/mL and should not be typed.

// query For the compound OC1C(O)C(O)C(O)C(O)C1O (stereo not shown) , give its measured Cmax value.
// result 16400

* * *

- testProtocol: clinical
- settings: male, human, in vivo, 7000 mg
observable: Vd (L)
Respond numerically; units are L and should not be typed.

// query For the molecule OC1C(O)C(O)C(O)C(O)C1O (stereo not shown) , give its measured Vd value.
// result 214

* * *

- testProtocol: in vivo
- settings: rat, po, 150 mg/kg
observable: AUC(0-t) (µg·h/mL)
Respond numerically; units are µg·h/mL and should not be typed.

// query For the molecule OC1C(O)C(O)C(O)C(O)C1O (stereo not shown) [AZD-103, scyllo-inositol] , give its measured AUC(0-t) value.
// result 573

* * *

- testProtocol: Brain penetrance: plasma and CSF pharmacokinetics after single oral doses in dogs
- Format: in vivo, dog
- settings: dog, PLASMA LEVELS, single oral dose 80 mg/kg
observable: AUC(0-inf) (µg·h/mL)
Respond numerically; units are µg·h/mL and should not be typed.

// query For the molecule OC1C(O)C(O)C(O)C(O)C1O (stereo not shown) [AZD-103, scyllo-inositol] , give its measured AUC(0-inf) value.
// result 255

* * *

- testProtocol: clinical
- settings: male, human, in vivo, po, 500 mg
observable: AUC(0-inf) (µg·h/mL)
Respond numerically; units are µg·h/mL and should not be typed.

// query For the molecule OC1C(O)C(O)C(O)C(O)C1O (stereo not shown) , give its measured AUC(0-inf) value.
// result 42.5

* * *

- testProtocol: clinical
- settings: male, human, in vivo, po, 500 mg
observable: Cmax

// query For the molecule OC1C(O)C(O)C(O)C(O)C1O (stereo not shown) , give its measured Cmax value.
// result 5820 ng/mL
